- Protocol Summary: MRT (0 to t) in Sprague-Dawley rat at 10 mg/kg, po measured for 24 hrs by LC-MS/MS analysis
- Format: ADME, organism-based
- Condition Notes: in vivo

| Chemical Structure | Measure Unit | MRT last at 24 h |
| --- | --- | --- |
| CCN1CCN(c2ccc(C(=O)Nc3cc(-c4ccc5ncn(Cc6c(Cl)cccc6Cl)c5c4)[nH]n3)cc2)CC1 | h | 3.63 |

----------
Overview of reported pIC50 across a group of compounds:
- Target Under Test: Receptor-type tyrosine-protein kinase FLT3 (Homo sapiens, UniProt P36888, ITD)
- Sequence (P36888 whole entry, looked up, stated change not applied): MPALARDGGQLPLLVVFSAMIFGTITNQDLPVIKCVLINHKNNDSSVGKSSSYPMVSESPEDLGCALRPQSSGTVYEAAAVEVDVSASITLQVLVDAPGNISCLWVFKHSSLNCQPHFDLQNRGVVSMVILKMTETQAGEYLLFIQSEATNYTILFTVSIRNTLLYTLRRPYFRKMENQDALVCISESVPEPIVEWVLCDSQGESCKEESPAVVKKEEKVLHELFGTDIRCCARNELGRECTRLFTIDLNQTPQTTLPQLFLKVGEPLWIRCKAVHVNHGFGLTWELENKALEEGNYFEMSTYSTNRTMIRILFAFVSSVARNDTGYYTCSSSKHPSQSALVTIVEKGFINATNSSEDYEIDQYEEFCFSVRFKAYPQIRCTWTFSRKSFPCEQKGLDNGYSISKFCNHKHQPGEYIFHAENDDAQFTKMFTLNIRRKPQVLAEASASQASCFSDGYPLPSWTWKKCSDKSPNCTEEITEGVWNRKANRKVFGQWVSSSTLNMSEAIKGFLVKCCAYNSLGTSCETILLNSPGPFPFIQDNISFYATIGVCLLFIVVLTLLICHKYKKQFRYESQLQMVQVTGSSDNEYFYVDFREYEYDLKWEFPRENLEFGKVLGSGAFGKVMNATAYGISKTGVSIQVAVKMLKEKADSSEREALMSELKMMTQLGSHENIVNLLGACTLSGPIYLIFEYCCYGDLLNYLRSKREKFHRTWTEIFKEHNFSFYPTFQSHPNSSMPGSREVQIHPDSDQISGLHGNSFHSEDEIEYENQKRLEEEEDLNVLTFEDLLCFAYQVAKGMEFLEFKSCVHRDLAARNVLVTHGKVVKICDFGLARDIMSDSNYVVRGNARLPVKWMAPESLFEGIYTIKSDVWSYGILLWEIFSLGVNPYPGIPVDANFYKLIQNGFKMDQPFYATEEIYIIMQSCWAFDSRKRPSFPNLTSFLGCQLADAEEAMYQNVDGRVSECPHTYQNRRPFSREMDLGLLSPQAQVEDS
- Protocol Summary: Inhibition of human FLT3-ITD mutant preincubated with enzyme for 20 mins followed by [gamma-33P]ATP addition and measured after 120 mins by filter binding method
pIC50: −log10 of the molar value.
Readout Type: pIC50

| Chemical Structure | Target Under Test | Observed Measurement |
| --- | --- | --- |
| CN1CCC(Nc2ccc(C(=O)Nc3cc(-c4ccc5ncn(Cc6ccccc6)c5c4)[nH]n3)cc2F)CC1 | Receptor-type tyrosine-protein kinase FLT3 (Homo sapiens, UniProt P36888, ITD) | 8.42 |
| CN1CCC(Nc2ccc(C(=O)Nc3cc(-c4ccc5ncn(C6CCCC6)c5c4)[nH]n3)cc2)CC1 | Receptor-type tyrosine-protein kinase FLT3 (Homo sapiens, UniProt P36888, ITD) | 8.94 |
| O=C(Nc1cc(-c2ccc3ncn(Cc4ccccc4)c3c2)[nH]n1)c1ccccc1 | Receptor-type tyrosine-protein kinase FLT3 (Homo sapiens, UniProt P36888, ITD) | 7.89 |
| CN1CCC(Nc2ccc(C(=O)Nc3cc(-c4ccc5ncn(Cc6ccncc6)c5c4)[nH]n3)cc2)CC1 | Receptor-type tyrosine-protein kinase FLT3 (Homo sapiens, UniProt P36888, ITD) | 7.79 |
| CN1CCC(Nc2ccc(C(=O)Nc3cc(-c4ccc5ncn(Cc6cccc(F)c6)c5c4)[nH]n3)cc2)CC1 | Receptor-type tyrosine-protein kinase FLT3 (Homo sapiens, UniProt P36888, ITD) | 8.49 |
| CN1CCC(Nc2ccc(C(=O)Nc3cc(-c4cccc5c4ncn5C)[nH]n3)cc2)CC1 | Receptor-type tyrosine-protein kinase FLT3 (Homo sapiens, UniProt P36888, ITD) | 7.63 |
| CN1CCC(Nc2ccc(C(=O)Nc3cc(-c4ccc5c(c4)ncn5Cc4ccccc4)[nH]n3)cc2)CC1 | Receptor-type tyrosine-protein kinase FLT3 (Homo sapiens, UniProt P36888, ITD) | 8.30 |
| CN1CCC(Nc2ccc(C(=O)Nc3cc(-c4ccc5ncn(Cc6ccc(Cl)cc6)c5c4)[nH]n3)cc2)CC1 | Receptor-type tyrosine-protein kinase FLT3 (Homo sapiens, UniProt P36888, ITD) | 8.44 |
| CN1CCC(Nc2ccc(C(=O)Nc3cc(-c4ccc5ncn(C)c5c4)[nH]n3)cc2)CC1 | Receptor-type tyrosine-protein kinase FLT3 (Homo sapiens, UniProt P36888, ITD) | 8.12 |
| Cc1cc(C(=O)Nc2cc(-c3ccc4ncn(Cc5ccccc5)c4c3)[nH]n2)ccc1NC1CCN(C)CC1 | Receptor-type tyrosine-protein kinase FLT3 (Homo sapiens, UniProt P36888, ITD) | 8.43 |
| CN1CCC(Nc2ccc(C(=O)Nc3cc(-c4ccc5ncn(Cc6ccccc6F)c5c4)[nH]n3)cc2)CC1 | Receptor-type tyrosine-protein kinase FLT3 (Homo sapiens, UniProt P36888, ITD) | 8.08 |
| CN1CCC(Nc2ccc(C(=O)Nc3cc(-c4ccc5ncn(CC6CCCCC6)c5c4)[nH]n3)cc2)CC1 | Receptor-type tyrosine-protein kinase FLT3 (Homo sapiens, UniProt P36888, ITD) | 8.41 |
| CN1CCC(Nc2ccc(C(=O)Nc3cc(-c4ccc5ncn(Cc6cccc(Cl)c6)c5c4)[nH]n3)cc2)CC1 | Receptor-type tyrosine-protein kinase FLT3 (Homo sapiens, UniProt P36888, ITD) | 9.03 |
| CN1CCC(Nc2ccc(C(=O)Nc3cc(-c4ccc5ncn(Cc6ccc(F)cc6)c5c4)[nH]n3)cc2)CC1 | Receptor-type tyrosine-protein kinase FLT3 (Homo sapiens, UniProt P36888, ITD) | 8.34 |

Numbers sourced from ChEMBL document CHEMBL5226341.
